- target.of.assay: T1, human VLA4-Fc (alpha4-Fc/beta1-Fc heterodimer) (human)
- T1 construct: Soluble heterodimer from CHO cells, Protein A purified; also called VLA-Fc
- assay.summary: SPR (BIACORE), VLA4-Fc captured by anti-human IgG, 1 mM MnCl2, 1:1 Langmuir
Kd: recorded values
Just the number please, in nM, no unit attached.

2D-VCAM-1 variant Clone 150 (ligand, not shown: His tag of the E. coli construct) FKIETTPESRYLAQIGDSVSLTCSTTGCESPLFFWRPQLDAPLNGKVTNEGTTSTLTMNPVSFGNEHSYLCTARCESRSLEKGIQVEIYSFPKDPEIHLSGPLEAGKPITVKCSVADVYPFDRLEIDLLKGDHLMKSQEFLEDADRKSLETKSLEVTFTPVIEDIGKVLVCRAKLHIDEMDSVPTVRQAVKELQVYISP | 0.417

Problem: Dear colleague, I am looking for the recorded Kd of the following binder: human 2D-VCAM-1 (ligand, also called wild type 2D-VCAM-1; wt-2D-VCAM-1; not shown: His tag) FKIETTPESRYLAQIGDSVSLTCSTTGCESPFFSWRTQIDSPLNGKVTNEGTTSTLTMNPVSFGNEHSYLCTATCESRKLEKGIQVEIYSFPKDPEIHLSGPLEAGKPITVKCSVADVYPFDRLEIDLLKGDHLMKSQEFLEDADRKSLETKSLEVTFTPVIEDIGKVLVCRAKLHIDEMDSVPTVRQAVKELQVYISP
Result: 15.2

Problem: May I ask what Kd has been recorded for Q38L-2D-VCAM-1 (ligand, also called Q38L 2D-VCAM-1 polypeptide; not shown: His tag) FKIETTPESRYLAQIGDSVSLTCSTTGCESPFFSWRTLIDSPLNGKVTNEGTTSTLTMNPVSFGNEHSYLCTATCESRKLEKGIQVEIYSFPKDPEIHLSGPLEAGKPITVKCSVADVYPFDRLEIDLLKGDHLMKSQEFLEDADRKSLETKSLEVTFTPVIEDIGKVLVCRAKLHIDEMDSVPTVRQAVKELQVYISP ?
Result: 1.87
